- TEST SUMMARY: NCI Yeast Anticancer Drug Screen. Data for the mlh1 rad18 strain (AID 175)
- TEST CONTEXT: S. cerevisiae mlh1 rad18 strain growth inhibition; at 50.0 µM (retest, dose inferred, filed as 5.0); hits give high values
The panel holds about 79,000 compounds, 15% with a hit somewhere; the sample as a whole holds those more often.
# growth inhibition per record follows
Response body: numeric value in %, unit text excluded.

Answered examples (10):
{"columns": ["MOLECULE", "growth inhibition, %"],
 "data": [
  ["Cn1cnc(N)c1C(=N)[Se]", 84],
  ["NC(=O)CNCc1ccc([As]=O)cc1 (centres undefined)", -6],
  ["C[N-]c1nnnn1C.[Au+].c1ccc([PH+](c2ccccc2)c2ccccc2)cc1", 94],
  ["CO[C@H](/C(C)=C/C=C/C(C)=C/c1coc(C)n1)[C@H](C)[C@H]1C[C@@H](O)[C@@]2(C)O[C@H]2/C=C/[C@@H](C)[C@@H]2C[C@@H](CC(=O)O2)C[C@H]2O[C@@H]2C(=O)O1", 89],
  ["O=C(c1ccccc1)C1CCCN(CCc2ccccc2)C1 (centres undefined)", 67],
  ["CC(=O)[CH-]C(C)=O.CC(=O)[CH-]C(C)=O.[CH2-]CCC.[CH2-]CCC.[Sn+4]", 60],
  ["Cc1ccccc1C(=O)CN", -3],
  ["CC(C)(C)C[CH2][Hg][Cl]", 100],
  ["FC(F)(F)c1nc2ccc(SSc3ccc4nc(C(F)(F)F)[nH]c4c3)cc2[nH]1", -6],
  ["CCn1c(O)c(C(=O)NC(C)c2ccc([N+](=O)[O-])cc2)c(=O)n(CC)c1=S (centres undefined)", 92]
]}

molecule `CN(/N=C/c1ccc(Cl)cc1)P(=O)(N1CC1)N1CC1` , growth inhibition observed: 28

molecule C/C(=N\N)C(CN1CCCCC1)C(c1ccccc1)c1c(O)c2ccccc2oc1=O (centres undefined) , growth inhibition observed: 8

molecule `CC#N.FC(F)(F)C#CC(F)(F)F.FC(F)(F)C#CC(F)(F)F.FC(F)(F)C#CC(F)(F)F.[W]` , growth inhibition observed: 99
